# targetOrSystem: T1, human GLP-1R (human), P43220
# T1 chain: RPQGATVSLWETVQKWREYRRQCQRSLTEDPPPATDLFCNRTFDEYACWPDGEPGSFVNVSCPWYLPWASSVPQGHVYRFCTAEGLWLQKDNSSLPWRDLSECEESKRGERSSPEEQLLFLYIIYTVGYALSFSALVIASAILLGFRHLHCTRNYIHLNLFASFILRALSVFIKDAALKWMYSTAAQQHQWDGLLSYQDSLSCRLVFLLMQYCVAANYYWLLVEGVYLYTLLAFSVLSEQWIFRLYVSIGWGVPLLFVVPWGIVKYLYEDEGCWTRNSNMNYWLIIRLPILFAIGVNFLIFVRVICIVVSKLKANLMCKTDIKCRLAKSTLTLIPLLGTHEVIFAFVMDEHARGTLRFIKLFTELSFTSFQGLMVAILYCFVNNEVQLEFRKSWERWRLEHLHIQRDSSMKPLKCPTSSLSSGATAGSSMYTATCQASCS
Non-standard residues stand in square brackets, D forms with d. Groups on a side chain read outwards from the residue. Primed or numbered codes have the meaning given here. No end group written: not given here. *: point of attachment. NMeY = CN[C@@H](Cc1ccc(O)cc1)C(=O)O; αMeF = C[C@](N)(Cc1ccccc1)C(=O)O; Lauroyl = CCCCCCCCCCCC(=O)*; dIva = CC[C@@](C)(N)C(=O)O; Iva = CC[C@](C)(N)C(=O)O; Aib = CC(C)(N)C(=O)O
metricName: Agonist activity (EC50, M)

binder	Agonist activity (EC50, M)
[NMeY][Aib]EGTFISDYSI[dIva]LDR[dIva]AQ[dIva]NFVNWLLAQRPSSGAPPPSR (not fully specified (N-terminus, C-terminus); ends and bridges not checked) [Compound 103]	> 1e-06 M
[NMeY][Aib]EGTFISDYSIALDRIAQ[Aib]SFVNW[Iva]LAQRPSSGAPPPSR (not fully specified (N-terminus, C-terminus); ends and bridges not checked) [Compound 124]	> 1e-06 M
[NMeY][Aib]EGTFISDYSIALDRIAQ[Aib]N[αMeF]VNWLLAQRPSSGAPPPSR (not fully specified (C-terminus); ends and bridges not checked) [Compound 72]	2.3e-07 M
Y[Aib]EGTFISDYSIALDRK([PEG(2)-Pal])HQ[Aib]NFVNW[Iva]LAQRPSSGAPPPS (not fully specified (C-terminus); ends and bridges not checked) [Compound 240]	5.8e-09 M
Y[Aib]EGTFISDYSK([PEG(2)-Lauroyl])[dIva]LDRIAQQDFVNWLLAQRPSSGAPPPSR (ends and bridges not checked) [Compound 199]	> 1e-06 M
Y[Aib]EGTVVSLYSI[Aib]LDKQAQ[Aib]EFVKWLLKGK([PEG(2)-Pal]) (ends and bridges not checked) [Compound 162]	> 1e-06 M
Y[Aib]EGTVVSLYSI[Aib]LDKQAQ[Aib]EFVKWLLAQKK(Pal) (ends and bridges not checked) [Compound 161]	> 1e-06 M
Ac-Y[Aib]EGTFISDYSIALDR[Aib]HQ[Aib]NFVNW[Iva]LAQRPSSGAPPPSR (ends and bridges not checked) [Compound 156]	> 1e-06 M
[NMeY][Aib]EGTFISDYSIALDRIAQQSFVNW[Iva]LAQRPSSGAPPPSR (not fully specified (N-terminus, C-terminus); ends and bridges not checked) [Compound 67]	> 1e-06 M
Y[Aib]EGTVVSLYSK([PEG(2)-Pal])[Aib]LDKQAQ[Aib]EFVKWLLAQK (ends and bridges not checked) [Compound 158]	> 1e-06 M

# ---- query binder ----
Form: binder = [NMeY][Aib]EGTFISDYSI[dIva]LDRIAQQDFVNWLLAQRPSSGAPPPS (ends and bridges not checked) [Compound 63] ; Agonist activity (EC50, M) = > 1e-06 M

Data credit: patent US20180298070A1
